- Target or test system: T1, GST-human NOGO-A56 (human, UniProt P08515 1-218 = GST)
- T1 construct: GST-tagged fusion expressed in E. coli BL21 and purified on glutathione-sepharose; coated on ELISA plates or amine-coupled to a CM5 chip; also called hNOGO; recombinant human NOGO
- T1 sequence (P08515 1-218, tags or fused parts left off): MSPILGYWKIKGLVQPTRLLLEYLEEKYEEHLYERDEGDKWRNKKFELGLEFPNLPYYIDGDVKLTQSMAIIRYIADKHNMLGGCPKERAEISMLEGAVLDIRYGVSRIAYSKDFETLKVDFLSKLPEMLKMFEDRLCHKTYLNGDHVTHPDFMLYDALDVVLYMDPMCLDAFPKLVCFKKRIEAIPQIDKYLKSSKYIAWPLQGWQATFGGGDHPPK
- Test description: SPR (Biacore 3000), GST-human NOGO-A56 amine-coupled to CM5, antibody as analyte; mean (SD) of four experiments
Experimental readout: kon

# kon (binder: H18L16 (antibody, human IgG1, kappa, V domains shown, Humanised 2A10; also called H18L16 FL) VH: QVQLVQSGAEVVKPGASVKLSCKASGYTFTSYWMHWVKQRPGQGLEWIGNINPSNGGTNYNEKFKSKATLTVDKSSSTAYMELSSLRSEDSAVYYCELGQGYWGQGTLVTVSS VL: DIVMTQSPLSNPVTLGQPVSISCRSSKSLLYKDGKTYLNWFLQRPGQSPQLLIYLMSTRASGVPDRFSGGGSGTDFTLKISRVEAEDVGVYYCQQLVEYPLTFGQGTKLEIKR ) is 3.64e+06 M⁻¹ s⁻¹

The binder identified as HcLc (chimera of 2A10: murine 2A10 VH and VL with human IgG constant regions) (antibody, V domains shown, Human gamma1 mutated constant region and human kappa; also called 2A10 chimeric antibody; the chimera) VH: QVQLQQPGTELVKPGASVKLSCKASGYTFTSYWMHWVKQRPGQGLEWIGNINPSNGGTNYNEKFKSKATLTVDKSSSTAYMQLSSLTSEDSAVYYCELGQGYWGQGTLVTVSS VL: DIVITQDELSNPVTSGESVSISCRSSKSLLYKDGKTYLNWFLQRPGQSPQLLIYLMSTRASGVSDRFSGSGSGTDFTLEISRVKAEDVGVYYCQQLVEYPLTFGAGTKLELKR registered its kon at 2.7e+06 M⁻¹ s⁻¹

Note to self: kon recorded for H1L11 (antibody, human IgG1, kappa, V domains shown, Earlier humanised 2A10) VH: QVQLVQSGAEVKKPGASVKVSCKASGYTFTSYWMHWVRQAPGQGLEWMGNINPSNGGTNYNEKFKSRVTMTRDTSTSTVYMELSSLRSEDTAVYYCELGQGYWGQGTLVTVSS VL: DIVITQSPLSLPVTLGQPASISCRSSKSLLYKDGKTYLNWFQQRPGQSPQLLIYLMSTRASGVPDRFSGGGSGTDFTLKISRVEAEDVGVYYCQQLVEYPLTFGQGTKLEIKR was 1.73e+06 M⁻¹ s⁻¹

// kon lookup, binder = H6L13 (antibody, human IgG1, kappa, V domains shown, Humanised 2A10; Human gamma1 mutated constant region and human kappa; also called H6L13 FL) VH: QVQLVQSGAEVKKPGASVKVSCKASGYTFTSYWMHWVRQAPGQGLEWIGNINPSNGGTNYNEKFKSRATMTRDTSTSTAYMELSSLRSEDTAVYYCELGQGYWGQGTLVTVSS VL: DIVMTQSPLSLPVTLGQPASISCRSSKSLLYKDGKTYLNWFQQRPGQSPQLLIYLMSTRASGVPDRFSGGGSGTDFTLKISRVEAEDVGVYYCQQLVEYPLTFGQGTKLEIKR , result: 1.82e+06 M⁻¹ s⁻¹
